Where do the numbers come from? From PubChem BioAssay (NCI).

# Measurement Description: NCI Yeast Anticancer Drug Screen. Data for the mlh1 rad18 strain (AID 175)
# Test Settings: S. cerevisiae mlh1 rad18 strain growth inhibition; at 50.0 µM
# Procedure: Growth inhibition of yeast strains with defined genetic alterations is measured as a screen for potential anti-cancer activity. Selected strains with alterations in DNA damage repair or cell cycle control were exposed to compounds and growth inhibition was measured relative to vehicle treated controls. The strain used in this assay is mlh1 rad18
The panel holds about 79,000 compounds, 15% with a hit somewhere; the sample as a whole holds those more often. Calls of active or inactive are those of the source. Rule as the data show it: active = growth inhibition above about 70%; inactive = the rest.
Your response should consist of one outcome taken from Yes = active, No = inactive

- Compound: "CC1(C)OC2C(COC(c3ccccc3)(c3ccccc3)c3ccccc3)OC(c3c[nH]c4c(N)ncnc34)C2O1 (stereo unspecified)"
  Class Label: "Yes"
- Compound: "CN1CCC(c2ccccc2)(c2ccccc2)C(=O)C1"
  Class Label: "Yes"
- Compound: "c1csc(-c2[nH]nc3c2CCc2ccccc2-3)c1"
  Class Label: "Yes"
- Compound: "C[n+]1ccccc1C[n+]1ccccc1"
  Class Label: "No"
- Compound: "Oc1ccc2ccccc2c1N=Nc1nccs1"
  Class Label: "Yes"

Dear all, I need the recorded test outcome for `O=C(CCc1ccccc1)ON1C(=S)NC(c2ccccc2)(c2ccccc2)C1=S` , thank you.
Yes

----------
Would you mind telling me the reported growth inhibition of each entry?
# Measurement Description: NCI Yeast Anticancer Drug Screen. Data for the mec2-1 strain (AID 157)
# Test Settings: S. cerevisiae mec2-1 strain, at 50.0 µM (retest, dose inferred, filed as 5.0), stronger effect = higher value
Compounds without any hit were thinned out: in the full panel of roughly 79,000, 15% have a hit.
Give bare numbers, in %.

# count of solved cases: 5
- Compound: "Cc1onc(-c2ccccc2)c1C(=O)N/N=C/c1cc(Cl)cc(Cl)c1O"
  Unit Label: "%"
  Endpoint Value: 96
- Compound: "N#CCc1cccc2ccccc12"
  Unit Label: "%"
  Endpoint Value: 10
- Compound: "CC(C)c1ccc(C(=O)OC2CCCC2)cc1"
  Unit Label: "%"
  Endpoint Value: 100
- Compound: "N#Cc1ccc(Br)cc1[N+](=O)[O-]"
  Unit Label: "%"
  Endpoint Value: 63
- Compound: "O=C(/C(Cl)=N/O)c1ccc(-c2ccccc2)cc1"
  Unit Label: "%"
  Endpoint Value: 98

Working through the 8 compounds below one at a time, give growth inhibition for each.
1. COc1ccc(Nc2nc3ccc(C(F)(F)F)cc3nc2C(=O)O)cc1
2. CSS(C)(=O)=O
3. Cc1ccccc1N=C(N)Nc1ccccc1C (tested in a mixture with another compound)
4. Cc1ccc(-c2c(C#N)c(-c3ccc(C)cc3)n(NS(=O)(=O)c3ccccc3)c(=O)c2C#N)cc1
5. CN1CSC(=S)N(Cc2ccccc2)C1
6. COc1ccc2c(c1OC)OCC(CN(C)C)C2=O (stereo not given)
7. COC1=CC(=O)c2c(O)c3c(c(O)c2C1=O)CC(C)(O)OC3 (stereo not given)
8. CCOc1cc(F)c([N+](=O)[O-])cc1[N+](=O)[O-]

[46, 99, 7, 94, 76, 99, 87, 100]

Working through the 7 compounds below one at a time, give growth inhibition for each.
1. Cc1cc(C(=O)c2ccc(Cl)cc2)ccc1O
2. O=C1c2ccccc2C(=O)c2c(O)c(Cl)cc(O)c21
3. CC(C)N=C(N)/N=C(\N)Nc1ccc2ccc3ccccc3c2c1
4. Cc1ccc(Nc2ccc(O)c3c2C(=O)c2c(O)ccc(Nc4ccc(C)cc4)c2C3=O)cc1
5. CCCCOS(=O)(=O)c1ccccc1
6. CCC[CH2][Sn]([CH2]CCC)([CH2]CCC)[O]C(=O)C(OC(C)=O)c1ccccc1 (stereo not given)
7. Cc1cc(=O)oc2cc(O)cc(O)c12

-2
26
99
-1
1
99
-2
